Test system: MCF7 breast
Assay: NCI tumour cell line growth inhibition, 384-well format
Documented GI50 across a set of compounds

Some compounds with recorded GI50:
compound=S=C(NCc1ccc2c(c1)OCO2)N1CCN(c2ncnc3c2oc2ccccc23)CC1 endpoint_result="3.01 µM"
compound=COCCOCCOCCOCCOC(=O)OC[n+]1ccc(NC(=NCCCCCCOc2ccc(Cl)cc2)NC#N)cc1 endpoint_result="< 0.01 µM"
compound=COc1ccc(S(=O)(=O)N2CCNCC2)cc1OC endpoint_result="> 100 µM"

Attention now turns to another entry.
// lookup GI50 for COc1ccc(COc2cc3oc(=O)c4cc(C(C)O)ccc4c3cc2OC)cc1 (centres undefined)
5.21 µM

====

System: T-47D breast
Experiment: NCI tumour cell line growth inhibition, 384-well format; in the data active = GI50 below about 0.43 µM; inactive = the rest
Write down the outcome that applies. Available outcomes: true (1) for active, false (0) for inactive

Use the examples below as a reference point.
structure_string=O=C(c1cc(Cc2n[nH]c(=O)c3ccccc23)ccc1F)N1CCN(C(=O)C2CC2)CC1 category_label="false (0)"
structure_string=C[C@H]1CN(C2COC2)CCN1c1ccc(Nc2cc(-c3ccnc(N4CCn5c(cc6c5CC(C)(C)C6)C4=O)c3CO)cn(C)c2=O)nc1 category_label="false (0)"
structure_string=COCCOCCOCCOCCOC(=O)OC[n+]1ccc(NC(=NCCCCCCOc2ccc(Cl)cc2)NC#N)cc1 category_label="true (1)"

Here is the next item to consider.
Would you mind telling me which call this test gave C[C@@H](NC(=O)c1ccc(F)cc1)c1ccc2c(c1)CCN2C(=O)C1CCOCC1 ?
false (0)

====

System: SF-295 CNS
Assay: NCI tumour cell line growth inhibition, 384-well format
Documented TGI across a set of compounds
Report the value in µM with no unit label.

compound=N#CCNC(=O)c1ccc(-c2ccnc(Nc3ccc(N4CCOCC4)cc3)n2)cc1 observable=TGI endpoint_result=17

Attention now turns to another entry.
// lookup TGI for COc1ccc(COc2cc3oc(=O)c4cc(C(C)O)ccc4c3cc2OC)cc1 (centres undefined)
30.6

====

Test system: KM12 colon
Assay: NCI tumour cell line growth inhibition, 384-well format
Documented GI50 across a set of compounds

Some compounds with recorded GI50:
compound=C[C@@H](NC(=O)c1ccc(F)cc1)c1ccc2c(c1)CCN2C(=O)C1CCOCC1 endpoint_result="> 100 µM"
compound="COc1ccc(COc2cc3oc(=O)c4cc(C(C)O)ccc4c3cc2OC)cc1 (centres undefined)" endpoint_result="8.27 µM"
compound=N#CCNC(=O)c1ccc(-c2ccnc(Nc3ccc(N4CCOCC4)cc3)n2)cc1 endpoint_result="3.51 µM"

Attention now turns to another entry.
API: value(readout= GI50, system= KM12 colon, query= O=C(c1cc(Cc2n[nH]c(=O)c3ccccc23)ccc1F)N1CCN(C(=O)C2CC2)CC1 )
> 100 µM

====

Documented GI50 across a set of compounds
Tested on: HCT-15 colon
Assay: NCI tumour cell line growth inhibition, 384-well format

Some compounds with recorded GI50:
structure_string=C[C@H]1CN(C2COC2)CCN1c1ccc(Nc2cc(-c3ccnc(N4CCn5c(cc6c5CC(C)(C)C6)C4=O)c3CO)cn(C)c2=O)nc1 study_target="HCT-15 colon" endpoint_result="28.3 µM"
structure_string=COc1ccc(S(=O)(=O)N2CCNCC2)cc1OC study_target="HCT-15 colon" endpoint_result="> 100 µM"
structure_string=N#CCNC(=O)c1ccc(-c2ccnc(Nc3ccc(N4CCOCC4)cc3)n2)cc1 study_target="HCT-15 colon" endpoint_result="3.02 µM"

// lookup GI50 for O=C(c1cc(Cc2n[nH]c(=O)c3ccccc23)ccc1F)N1CCN(C(=O)C2CC2)CC1
> 100 µM
